Sourced from PubChem BioAssay (NCI)

Tested on: SNB-19 CNS
Experiment: NCI-60 one-dose screen, 48 h (100 = growth as untreated, 0 = no growth, -100 = all killed)
Details: 10 µM unless noted
This is part of a sample that, as a whole, favours compounds with a hit. Of some 83,000 tested, about 20% had one in any assay. Active and inactive are the calls of the source. The calls were made as follows: active = growth percent below 10; inactive = the rest.
ASSAY ENDPOINT: growth

# example entries with known answers
COMPOUND | growth
O=C(/C=C/c1c(Cl)nc2sccn12)c1nccs1 | 102% (inactive)
O=c1c2cc(F)ccc2sc2c(NCCN3CCCCC3)nc3ccccc3c12 | 66.6% (inactive)
O=C(Nc1ccccc1-c1nc2ccccc2c(=O)[nH]1)c1cc2ccccc2[nH]1 | 93.4% (inactive)
O=[N+]([O-])c1ccc(OCCO)cc1 | 101% (inactive)
COc1ccc(/C=c2\nc3n(-c4ccccc4)c4nc5c6c(sc5c(=N)n4n-3c2=O)CCCC6)cc1 | 84.9% (inactive)
Cc1cc(NCCCCNc2ccnc3cc(Cl)ccc23)nc(Nc2ccc(C(=O)N3CCCCC3)cc2)n1 | 25.1% (inactive)

Request: What measured growth goes with `CC/C=C\CCC/C=C1/C(=O)C=C[C@@H]1C/C=C\CCCC(=O)O` ?
Response: 69.2% (inactive)

Request: Here is the next compound: `Cc1c(C)c2c(c(C)c1OCC(=O)O)CC[C@@](C)(CCC[C@@H](C)CCC[C@@H](C)CCCC(C)C)O2`
Response: 17% [50 µM] (inactive)

Request: Record: CN(C)CC1C(=O)O[C@H]2[C@H]1CC/C(COC(=O)c1cc3ccccc3[nH]1)=C\CC[C@@]1(C)O[C@@H]21 (stereo not given in full)
Response: 49.5% (inactive)

Request: Further, for `CC(C)CCC[C@@H](C)[C@H]1CC[C@H]2[C@@H](Nc3ccc(O)cc3)CCC[C@]12C` ?
Response: 111% (inactive)

====

System: NCI-H322M lung
Test: NCI-60 one-dose screen, 48 h (100 = growth as untreated, 0 = no growth, -100 = all killed)
Conditions: 10 µM unless noted
About 83,000 compounds went through this panel and 20% of them were active in at least one assay; those are over-represented in the sample as a whole.
ASSAY ENDPOINT: growth (%)
Report the value in % with no unit label.

Guide cases for growth, answers given:
COMPOUND | growth, %
O=C1/C(=C\c2cccnc2)SC(=S)N1CCc1ccc(O)cc1 | 91.5
CCN(CC)c1nc(SCC(=O)Nc2nc3ccc(C)cc3s2)nc(-c2ccccc2)c1C#N | 88.8
Cc1ccccc1NC(=O)N/C(N)=N/c1nc(C)c(C)s1 | 46.2

Request: Name the recorded growth for CC1(C)OC2C(CO[Si](C)(C)C(C)(C)C)OC(n3c(I)c(C#C[Si](C)(C)C)c(=O)[nH]c3=O)C2O1 (stereo unspecified) .
Response: 106

Request: Continue with `C[n+]1cccc(CC(=O)NO)c1`
Response: 97.2

Request: Can you check Cc1ccc(-n2nc3c(c(C#N)c2=O)CC(c2ccccc2Cl)C([N+](=O)[O-])=C3O)cc1 (stereo unspecified) next?
Response: 101

Request: Now the same for `N#C/C(=C\c1ccc(Br)cc1)n1nnc2cc(F)c(F)cc21`
Response: 58.6

Request: And the next one, `Cc1cc(=O)[nH]c(N=Nc2c(O)[nH]c3ccccc23)n1` ?
Response: 123

Request: Let us now turn to `COc1ccc2[nH]c(O)c(/C=c3/cc4c(c(-c5ccc(F)c(OC)c5)n3)=Nc3ccccc3-4)c2c1`
Response: 89.1

Request: What do you have for `NC[C@H](O)c1ccc(O)c(O)c1` ?
Response: 110

Request: Same again, this time with `COc1cc(Cn2ncc3ccc(NC(=O)c4cc5ccccc5oc4=N)cc32)cc(OC)c1OC`
Response: 89.6
